Source: paper PMC10216263

ASSAY PROCEDURE: Oral DRF and systemic exposure in NHP
Format: in vivo, Cynomolgus monkeys
SETUP CONDITIONS: female, cynomolgus monkey, in vivo, po, 50 mg/kg/day
REPORTED METRIC: Tmax
Give me the value, and tack the unit on after it.

Any idea what its Tmax is? The compound is Clc1ccc2c(NCC34CCCN3CCC4)ccnc2c1 [MG3] 30 min

---

ASSAY PROCEDURE: 7-day oral dose range finding (DRF) and systemic exposure in rats
Assay type: in vivo, Sprague Dawley rats
SETUP CONDITIONS: male, Sprague-Dawley, rat, in vivo, po, 120 mg/kg/day, AUC0–24
REPORTED METRIC: AUC(0-t)

Look up AUC(0-t) for this molecule: Clc1ccc2c(NCC34CCCN3CCC4)ccnc2c1 3840 ng·h/mL

---

ASSAY PROCEDURE: Intrinsic clearance in hepatocytes
Assay type: in vitro ADME
SETUP CONDITIONS: human hepatocytes
Description: An automatic liquid handling system (Multiprobe II EX, Packard) was used for sampling. […] Half-life and CLint were determined from the concentration (counts) remaining at the different sampling points using the LC-MS/MS method. The slope was calculated using linear regression analysis of the curve (natural logarithmic area of the compound remaining against the time) and converted into the half-life (t1/2) and CLint expressed as µL/min/million cells and mL/min/kg, respectively.
REPORTED METRIC: CLint scaled at 1 µM (mL/min/kg)
Please reply with the bare figure in mL/min/kg and do not write the unit itself.

I am curious: what CLint scaled at 1 µM value has been reported for Clc1ccc2c(NCC34CCCN3CCC4)ccnc2c1 ? 4.9

---

ASSAY PROCEDURE: 7-day oral dose range finding (DRF) and systemic exposure in rats
Assay type: in vivo, Sprague Dawley rats
SETUP CONDITIONS: female, Sprague-Dawley, rat, in vivo, po, 60 mg/kg/day, AUC0–24
REPORTED METRIC: AUC(0-t)
# output: number + unit

What does the data say about its AUC(0-t)? Entry: Clc1ccc2c(NCC34CCCN3CCC4)ccnc2c1 [MG3] 4740 ng·h/mL

---

ASSAY PROCEDURE: 7-day oral dose range finding (DRF) and systemic exposure in rats
Type: in vivo, Sprague Dawley rats
SETUP CONDITIONS: female, Sprague Dawley, rat, in vivo, po, 30 mg/kg/day, Cmax
REPORTED METRIC: Cmax (ng/mL)
The figure you give is taken to be in ng/mL; do not add the unit.

Cmax lookup needed for Clc1ccc2c(NCC34CCCN3CCC4)ccnc2c1 , thanks. 149

---

ASSAY PROCEDURE: 7-day oral dose range finding (DRF) and systemic exposure in rats
Assay type: in vivo, Sprague Dawley rats
SETUP CONDITIONS: female, Sprague-Dawley, rat, in vivo, po, 60 mg/kg/day, Cmax
REPORTED METRIC: Cmax (ng/mL)
# number only, unit ng/mL dropped from output

Which value of Cmax has been reported for Clc1ccc2c(NCC34CCCN3CCC4)ccnc2c1 in the records? 259

---

ASSAY PROCEDURE: 7-day oral dose range finding (DRF) and systemic exposure in rats
Format: in vivo, Sprague Dawley rats
SETUP CONDITIONS: male, Sprague Dawley, rat, in vivo, po, 120 mg/kg/day, Cmax
REPORTED METRIC: Cmax (ng/mL)
State just the number; it will be interpreted in ng/mL.

Recorded Cmax for Clc1ccc2c(NCC34CCCN3CCC4)ccnc2c1 [MG3] , please? 1090
